Cited source for all entries: patent US8008488B2

Exercise: for every item that follows, state its recorded Selectivity D3 vs. D2L*.
target: human dopamine D2L receptors (long isoform) (Homo sapiens, UniProt P14416); construct: expressed in transfected cells; assay: Dopamine D2L receptor binding, displacement of [125I]-iodospiperone; conditions: *Ki(D2L)/Ki(D3), HEK-293 membranes, 0.01 nM [125I]-iodospiperone
Sequence (P14416 whole entry, canonical isoform): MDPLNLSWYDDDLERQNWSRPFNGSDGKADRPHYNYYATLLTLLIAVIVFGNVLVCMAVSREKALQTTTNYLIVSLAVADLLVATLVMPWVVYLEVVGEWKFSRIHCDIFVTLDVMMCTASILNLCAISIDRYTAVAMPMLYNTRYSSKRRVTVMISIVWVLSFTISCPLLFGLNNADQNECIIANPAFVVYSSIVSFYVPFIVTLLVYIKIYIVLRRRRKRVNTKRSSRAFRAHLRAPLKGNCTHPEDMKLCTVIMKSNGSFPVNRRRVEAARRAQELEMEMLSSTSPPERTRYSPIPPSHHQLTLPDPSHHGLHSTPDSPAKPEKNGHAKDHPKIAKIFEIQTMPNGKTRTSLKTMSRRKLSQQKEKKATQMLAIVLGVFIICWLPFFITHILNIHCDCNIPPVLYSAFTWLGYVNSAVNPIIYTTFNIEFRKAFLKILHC
Answers are plain numbers.

Reference set (3 entries):
COMPOUND	Selectivity D3 vs. D2L*
CCCc1cc(N2CCN(CCCCn3ccc(C4CCCCC4)nc3=O)CC2)nc(C(C)(C)C)n1 [Example 100]	51
CC(C)(C)c1nc(N2CCN(CCCCn3ccc(-c4ccsc4)nc3=O)CC2)cc(C(F)(F)F)n1 [Example 92]	31
Cc1ccccc1-c1ccn(CCCCN2CCN(c3cc(C(F)(F)F)nc(C(C)(C)C)n3)CC2)c(=O)n1 [Example 60]	91

Q: Which Selectivity D3 vs. D2L* value belongs to CCCc1cc(N2CCN(CCCCn3ccc(C(F)(F)F)nc3=O)CC2)nc(C(C)(C)C)n1 [Example 41] ?
A: 62
